Origin of values: ChEMBL document CHEMBL4219120

- system: DNA topoisomerase 2-alpha (Homo sapiens) (UniProt P11388)
- Sequence (P11388 whole entry): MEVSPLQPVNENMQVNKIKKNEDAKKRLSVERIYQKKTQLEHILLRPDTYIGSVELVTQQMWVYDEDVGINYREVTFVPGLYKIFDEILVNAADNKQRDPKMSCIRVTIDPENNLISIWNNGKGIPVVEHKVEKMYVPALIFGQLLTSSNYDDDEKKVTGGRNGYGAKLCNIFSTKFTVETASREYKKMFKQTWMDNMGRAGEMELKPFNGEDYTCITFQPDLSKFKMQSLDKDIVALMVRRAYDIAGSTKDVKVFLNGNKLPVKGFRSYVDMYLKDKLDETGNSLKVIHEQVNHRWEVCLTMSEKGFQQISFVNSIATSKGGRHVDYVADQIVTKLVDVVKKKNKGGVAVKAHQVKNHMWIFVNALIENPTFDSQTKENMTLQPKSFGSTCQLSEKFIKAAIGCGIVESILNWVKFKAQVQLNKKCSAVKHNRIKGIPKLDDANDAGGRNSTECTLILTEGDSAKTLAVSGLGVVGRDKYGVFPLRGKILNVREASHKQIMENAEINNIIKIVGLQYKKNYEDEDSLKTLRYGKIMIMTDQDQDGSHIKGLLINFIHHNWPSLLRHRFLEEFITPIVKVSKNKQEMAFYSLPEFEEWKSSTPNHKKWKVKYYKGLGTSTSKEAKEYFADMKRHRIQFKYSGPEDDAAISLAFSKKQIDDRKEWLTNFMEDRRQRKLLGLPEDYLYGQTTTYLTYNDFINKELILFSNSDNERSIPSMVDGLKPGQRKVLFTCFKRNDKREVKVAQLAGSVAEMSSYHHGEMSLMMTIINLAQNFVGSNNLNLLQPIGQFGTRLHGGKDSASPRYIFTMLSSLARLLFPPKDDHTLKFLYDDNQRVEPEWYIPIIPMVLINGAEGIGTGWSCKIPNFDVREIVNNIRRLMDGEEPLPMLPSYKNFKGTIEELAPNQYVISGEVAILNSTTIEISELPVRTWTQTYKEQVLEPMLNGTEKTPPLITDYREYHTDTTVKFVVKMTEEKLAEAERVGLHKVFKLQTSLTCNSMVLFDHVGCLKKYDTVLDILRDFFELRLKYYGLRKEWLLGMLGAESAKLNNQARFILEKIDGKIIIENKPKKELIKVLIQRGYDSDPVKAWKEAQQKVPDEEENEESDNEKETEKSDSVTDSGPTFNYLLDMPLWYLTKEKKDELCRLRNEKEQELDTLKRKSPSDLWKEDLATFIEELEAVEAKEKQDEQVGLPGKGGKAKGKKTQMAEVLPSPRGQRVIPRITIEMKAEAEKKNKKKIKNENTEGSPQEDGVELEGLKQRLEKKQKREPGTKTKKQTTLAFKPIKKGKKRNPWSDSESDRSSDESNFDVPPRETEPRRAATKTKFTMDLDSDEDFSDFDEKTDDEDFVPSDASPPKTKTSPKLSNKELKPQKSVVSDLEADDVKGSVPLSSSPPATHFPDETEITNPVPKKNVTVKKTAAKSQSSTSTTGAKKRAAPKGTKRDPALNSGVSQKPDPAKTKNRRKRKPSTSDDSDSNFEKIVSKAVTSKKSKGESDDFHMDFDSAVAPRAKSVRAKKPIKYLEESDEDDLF
- protocol text: Inhibition of recombinant human topoisomerase 2alpha assessed as decrease in relaxation of supercoiled pBR322 DNA at 20 uM after 30 mins by agarose gel electrophoresis relative to etoposide
parameter: fold change (FC)
Give bare numbers.

Observe how each entry below is paired with its result.
entry_smiles=Oc1ccccc1-c1cc(-c2cccc(Cl)c2)nc2c1COc1ccccc1-2 numeric_result=1.46
entry_smiles=Oc1ccccc1-c1cc(-c2ccccc2Cl)nc2c1COc1ccccc1-2 numeric_result=1.33
entry_smiles=Oc1ccccc1-c1cc(-c2ccc(Cl)cc2)nc2c1oc1ccccc12 numeric_result=0.63

Batch lookup, fold change (FC) per entry.
1. Oc1cccc(-c2cc(-c3cccc(Cl)c3)nc3c2COc2ccccc2-3)c1
2. Oc1ccccc1-c1cc(-c2ccc(Cl)cc2)nc2c1COc1ccccc1-2

1. 1.79
2. 1.59

Hey, quick one: what's fold change (FC) for each of these?
1. Oc1ccc(-c2cc(-c3ccc(Cl)cc3)nc3c2COc2ccccc2-3)cc1
2. Oc1cccc(-c2cc(-c3ccc(Cl)cc3)nc3c2COc2ccccc2-3)c1
3. Oc1cccc(-c2cc(-c3ccccc3Cl)nc3c2COc2ccccc2-3)c1

1. 1.18
2. 1.8
3. 1.61
